- Test system: NCI-H23 lung
- experiment: NCI tumour cell line growth inhibition, 48 h
result-type: TGI (µM)
Express your answer in µM, writing the number without its unit.

Exercise: Identify measured TGI corresponding to `COc1ccc(NS(=O)(=O)c2ccc(N=C3C=C(Nc4ccc(S(=O)(=O)Nc5ccc(OC)nn5)cc4)C(=O)c4ccccc43)cc2)nn1`
Solution: 29.7

Exercise: Identify measured TGI corresponding to `COc1cccc(NC(=O)c2ccc(NC3=C(Cl)C(=O)N(Cc4ccccc4)C3=O)cc2)c1`
Solution: 28.6

====

- Test system: UO-31 renal
- experiment: NCI tumour cell line growth inhibition, 48 h
Assign TGI to each entry below.

Exercise: Identify measured TGI corresponding to `CC(C)(C)OC(=O)N1CCC(NC(=O)NC2CCN(C(=O)OC(C)(C)C)CC2)CC1`
Solution: > 100 µM

Exercise: Identify measured TGI corresponding to CC1(C)OC2COC(c3[nH]nc4c(=O)[nH]c(=O)[nH]c34)C2O1 (stereo not given)
Solution: > 100 µM

Exercise: Identify measured TGI corresponding to `Cn1c(O)c(C=Nc2ccc(Cl)cc2Cl)c(=O)n(C)c1=O`
Solution: > 100 µM

Exercise: Identify measured TGI corresponding to `C[C@@H]1OC(=O)NN=C1c1ccc(-c2ccc(F)cc2)c(C(F)(F)F)c1`
Solution: 20.9 µM

Exercise: Identify measured TGI corresponding to `NS(=O)(=O)c1ccc(N2C(=O)C(=O)N(c3ccccc3)C2=S)cc1`
Solution: > 100 µM

Exercise: Identify measured TGI corresponding to CC1(C)CC[C@]2(C(=O)O)CC[C@]3(C)C(=CC[C@@H]4[C@@]5(C)CC[C@H](OC6OC(CO)C(O)C(O)C6O)C(C)(C)[C@@H]5CC[C@]43C)[C@@H]2C1 (stereo not given in full)
Solution: 3.1 µM

Exercise: Identify measured TGI corresponding to `CC(=O)OCc1nnn2c1CCC2`
Solution: > 100 µM

Exercise: Identify measured TGI corresponding to `NS(=O)(=O)c1nnc(NC(=O)/C=C/C(=O)O)s1`
Solution: > 100 µM

Exercise: Identify measured TGI corresponding to N#CC(C(=O)O)C(c1c(Cl)cccc1Cl)C(C#N)C(=O)O (stereo not given)
Solution: > 100 µM

Exercise: Identify measured TGI corresponding to `CN(C(=O)c1ccc(Cl)cc1)C(=S)N1CCN(c2ccccc2)CC1`
Solution: > 100 µM

====

- Tested on: MDA-MB-231 breast
- experiment: NCI tumour cell line growth inhibition, 48 h
result-type: TGI

Exercise: Identify measured TGI corresponding to CC1(C)OC2COC(c3[nH]nc4c(=O)[nH]c(=O)[nH]c34)C2O1 (stereo not given)
Solution: > 100 µM

Exercise: Identify measured TGI corresponding to `CCCCCCCCCCCCC(NC(C)=O)(C(=O)OCC)C(=O)OCC`
Solution: 26.7 µM

Exercise: Identify measured TGI corresponding to `O=C1NC(N2CCCCC2)=N/C1=C\c1ccccc1`
Solution: > 100 µM

Exercise: Identify measured TGI corresponding to CCC1(N)C(=O)OCc2c1cc1n(c2=O)Cc2cc3ccccc3nc2-1 (stereo not given)
Solution: > 100 µM

Exercise: Identify measured TGI corresponding to `CCOC(=O)/C=C(/C(=O)OCC)n1ccc(=O)n(CC(=O)OCC)c1=O`
Solution: 4.41 µM

Exercise: Identify measured TGI corresponding to CN(C)C1C(=O)C(C(N)=O)=C(O)C2(O)C(=O)C3=C(O)c4c(O)cccc4C(C)(O)C3CC12 (stereo not given)
Solution: > 100 µM

Exercise: Identify measured TGI corresponding to `COc1ccc2[nH]c3c(C)c4ncccc4c(C)c3c2c1`
Solution: > 10 µM

Exercise: Identify measured TGI corresponding to `COc1ccc(S(=O)(=O)Nc2ccc(-c3csc(N4C(=O)/C(=C/c5cccs5)N=C4c4ccccc4)n3)cc2)cc1Cl`
Solution: > 100 µM

Exercise: Identify measured TGI corresponding to `COc1ccc2c(c1)c(-c1ccc(-c3cn(C)c4ccc(OC)cc34)o1)cn2C`
Solution: 22.2 µM

Exercise: Identify measured TGI corresponding to `CSS(C)(=O)=O`
Solution: > 100 µM
